Test system: foxtail, giant (Setaria faberii)
measurementDescription: Test A postemergence, giant foxtail
Format: in vivo
conditionLabel: 125 g ai/ha, 0 to 100 scale, 0 no effect, 100 complete control
Below: a set of entries, each annotated with reported Plant response rating, Foxtail, Giant.
Answer field: number only, no words.

Please review the following examples before continuing.
CC(Nc1nc(N)c(C(F)(F)F)c(C(F)(F)F)n1)c1coc2ccccc12 (stereo not drawn) [Compound 87]; 0
CC(F)c1nc(N[C@H](C)c2cc3ccccc3o2)nc(N)c1C(F)(F)F (stereo partly drawn) [Compound 112]; 0
CC[C@@H](Nc1ncc(C(F)(F)F)c(N)n1)c1cc2ccc(F)cc2s1 [Compound 48]; 10
C[C@@H](Nc1ncc(C#N)c(N)n1)c1cc2ccccc2s1 [Compound 104]; 0
C[C@@H](Nc1nc(N)c(C(F)(F)F)c(C(F)(F)F)n1)c1cc2ccccc2o1 [Compound 65]; 0

Item CC(Nc1ncc(C(F)(F)F)c(N)n1)c1cc2c(Cl)cccc2o1 (stereo not drawn) [Compound 100] has what recorded Plant response rating, Foxtail, Giant? 20

* * *

Below: a set of entries, each annotated with reported Plant response rating, Ducksalad (0 to 100 scale, 0 is no effect, 100 is complete control).
Test system: ducksalad (Heteranthera limosa)
measurementDescription: Test B flooded paddy test, ducksalad
Assay type: in vivo
conditionLabel: Flood, 250 g ai/ha, applied to paddy water, 2-leaf stage, visual evaluation after 13 to 15 d
Answer field: number only, no words.

Please review the following examples before continuing.
C[C@@H](Nc1ncc(C(F)(F)F)c(N)n1)c1cc2cc(Cl)ccc2o1; 0
Cc1cccc2sc([C@@H](C)Nc3ncc(C(F)(F)F)c(N)n3)cc12; 65
CCC(Nc1ncc(C(F)(F)F)c(N)n1)c1coc2ccccc12 (racemic); 0
C[C@@H](Nc1nc(N)c(C(F)(F)F)c(C(F)F)n1)c1cc2ccccc2o1; 0
C[C@H](COc1ccccc1)Nc1ncc(C(F)(F)F)c(N)n1; 0

Item C[C@H](Nc1nc(N)c(C(F)(F)F)c(C(F)(F)F)n1)c1cc2ccccc2o1 has what recorded Plant response rating, Ducksalad (0 to 100 scale, 0 is no effect, 100 is complete control)? 0

* * *

Tested on: pigweed (Amaranthus retroflexus)
measurementDescription: Test A preemergence, pigweed
Assay type: in vivo
conditionLabel: 125 g ai/ha, 0 to 100 scale, 0 is no effect, 100 is complete control
measuredQuantity: Pigweed plant response rating
Answer field: number only, no words.

Please review the following examples before continuing.
C[C@@H](Nc1nc(N)c(C(F)(F)F)c(C(F)(F)F)n1)C1Cc2ccccc2C1; 30
CC(Nc1ncc([N+](=O)[O-])c(N)n1)c1cc2ccccc2s1 (centres unmarked); 40
CC[C@@H](Nc1ncc(C(F)(F)F)c(N)n1)c1coc2ccccc12; 90
CC[C@H](Nc1ncc(C(F)(F)F)c(N)n1)c1coc2ccccc12; 0
Cc1ccc2c([C@@H](Nc3ncc(C(F)(F)F)c(N)n3)C3CC3)coc2c1; 0

Item CC(Nc1ncc(C(F)(F)F)c(N)n1)c1cc2c(Br)cccc2o1 (centres unmarked) has what recorded Pigweed plant response rating? 100

Item C[C@H](Nc1nc(N)c(C(F)(F)F)c(C(F)(F)F)n1)c1cc2ccccc2s1 has what recorded Pigweed plant response rating? 0

Item CC(Nc1ncc(C(F)(F)F)c(N)n1)c1csc2ccccc12 (centres unmarked) has what recorded Pigweed plant response rating? 100

* * *

System: foxtail, giant (Setaria faberii)
measurementDescription: Test A postemergence, giant foxtail
Format: in vivo
conditionLabel: 31 g ai/ha, 0 to 100 scale, 0 no effect, 100 complete control
Below: a set of entries, each annotated with reported Plant response rating, Foxtail, Giant.

Please review the following examples before continuing.
C[C@@H](Nc1ncc(C(F)(F)F)c(N)n1)c1cc2ccccc2[s+]1[O-] (some centres unmarked); 0
C[C@@H](Nc1nc(N)c(C(F)(F)F)c(C(F)F)n1)c1cc2ccccc2s1; 0
Cc1cccc2sc([C@@H](C)Nc3ncc(C(F)(F)F)c(N)n3)cc12; 60
C[C@@H](Nc1nc(N)c(C(F)(F)F)c(C(F)F)n1)c1cc2ccccc2o1; 0

Now consider a different molecule.
Item C[C@@H](Nc1ncc([S+](C)[O-])c(N)n1)c1cc2ccccc2s1 (some centres unmarked) has what recorded Plant response rating, Foxtail, Giant? 0

* * *

System: ragweed (common ragweed, Ambrosia elatior)
measurementDescription: Test A preemergence, ragweed
Format: in vivo
conditionLabel: 125 g ai/ha, 0 to 100 scale, 0 is no effect, 100 is complete control
Below: a set of entries, each annotated with reported Ragweed plant response rating.
Answer field: number only, no words.

Please review the following examples before continuing.
C[C@@H](Nc1ncc(C(F)(F)F)c(N)n1)c1cc2ccc(F)cc2s1; 80
CC(Nc1ncc([N+](=O)[O-])c(N)n1)c1cc2ccccc2s1 (stereo not drawn); 90
C[C@H](Nc1nc(N)c(C(F)(F)F)c(C(F)(F)F)n1)c1cc2ccccc2o1; 0
Cc1cccc(OCC(C)Nc2ncc(C(F)(F)F)c(N)n2)c1 (stereo not drawn); 0
C[C@@H](Nc1ncc(C(F)(F)F)c(N)n1)c1cc2c(Cl)cccc2s1; 70

Item CC[C@H](Nc1ncc(C(F)(F)F)c(N)n1)c1cc2ccc(F)cc2o1 has what recorded Ragweed plant response rating? 0

Item CC(COc1cc(F)cc(F)c1)Nc1ncc(C(F)(F)F)c(N)n1 (stereo not drawn) has what recorded Ragweed plant response rating? 0

Item C[C@@H](Nc1ncc(C(F)(F)F)c(N)n1)c1cc2c(F)cccc2o1 has what recorded Ragweed plant response rating? 100

* * *

Tested on: rice (Oryza sativa)
measurementDescription: Test B flooded paddy test, rice
Format: in vivo
conditionLabel: Flood, 250 g ai/ha, applied to paddy water, 2-leaf stage, visual evaluation after 13 to 15 d
Below: a set of entries, each annotated with reported Plant response rating, Rice (0 to 100 scale, 0 is no effect, 100 is complete control).

Please review the following examples before continuing.
CC[C@@H](Nc1ncc(C(F)(F)F)c(N)n1)c1cc2ccccc2o1; 0
C[C@@H](Nc1ncc(C(F)(F)F)c(N)n1)c1cc2cc(F)ccc2o1; 0

Item C[C@@H](Nc1ncc(C(F)(F)F)c(N)n1)c1cc2ccc(C(F)(F)F)cc2o1 has what recorded Plant response rating, Rice (0 to 100 scale, 0 is no effect, 100 is complete control)? 0

Item CC(COc1cccc(C(F)(F)F)c1)Nc1ncc(C(F)(F)F)c(N)n1 (stereo not drawn) has what recorded Plant response rating, Rice (0 to 100 scale, 0 is no effect, 100 is complete control)? 0

Item Nc1nc(N[C@@H](c2cc3ccccc3s2)C2CC2)ncc1C(F)(F)F has what recorded Plant response rating, Rice (0 to 100 scale, 0 is no effect, 100 is complete control)? 20

Item Cc1ccc2oc([C@@H](C)Nc3ncc(C(F)(F)F)c(N)n3)cc2c1 has what recorded Plant response rating, Rice (0 to 100 scale, 0 is no effect, 100 is complete control)? 0

Item CC(COc1cc(F)c(F)c(F)c1)Nc1ncc(C(F)(F)F)c(N)n1 (stereo not drawn) has what recorded Plant response rating, Rice (0 to 100 scale, 0 is no effect, 100 is complete control)? 0

* * *

System: foxtail, giant (Setaria faberii)
measurementDescription: Test A postemergence, giant foxtail
Format: in vivo
conditionLabel: 125 g ai/ha, 0 to 100 scale, 0 no effect, 100 complete control
Below: a set of entries, each annotated with reported Plant response rating, Foxtail, Giant.

Nc1nc(NC(c2cc3ccccc3o2)C2CC2)ncc1C(F)(F)F (stereo not drawn) [Compound 89]; 0
CC(C)[C@@H](Nc1ncc(C(F)(F)F)c(N)n1)c1cc2ccccc2s1 [Compound 50]; 0
C[C@@H](Nc1ncc(C(F)(F)F)c(N)n1)c1cc2ccccc2[s+]1[O-] (stereo partly drawn) [Compound 113]; 0

Item CC[C@H](Nc1ncc(C(F)(F)F)c(N)n1)c1coc2ccccc12 [Compound 81] has what recorded Plant response rating, Foxtail, Giant? 0

Item CC[C@@H](Nc1ncc(C(F)(F)F)c(N)n1)c1cc2ccc(F)cc2o1 [Compound 63] has what recorded Plant response rating, Foxtail, Giant? 20

* * *

Below: a set of entries, each annotated with reported Plant response rating, Barnyardgrass.
System: barnyardgrass (Echinochloa crus-galli)
measurementDescription: Test A postemergence, barnyardgrass
Type: in vivo
conditionLabel: 31 g ai/ha, 0 to 100 scale, 0 no effect, 100 complete control
Answer field: number only, no words.

C[C@@H](Nc1ncc(C(F)(F)F)c(N)n1)c1cc2ccccc2[s+]1[O-] (stereo partly shown); 0
C[C@@H](Nc1ncc(C(F)(F)F)c(N)n1)c1cc2c(Cl)cccc2s1; 10

Item CC(F)c1nc(N[C@H](C)c2cc3ccccc3o2)nc(N)c1C(F)(F)F (stereo partly shown) has what recorded Plant response rating, Barnyardgrass? 0

Item C[C@@H](Nc1nc(N)c(C(F)(F)F)c(C(F)F)n1)c1cc2ccccc2o1 has what recorded Plant response rating, Barnyardgrass? 10

Provenance of the data: patent US20220119354A1
